The origin of these recorded values is paper PMC7826789.

Test system: CAMK1B;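 note: KINOMEscan scanMAX binding as percent activity remaining versus control; lower means stronger binding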
Construct: gene PNCK
Condition Summary: Compound Concentration (nM):1000
Property Measured: Percent Control (%)

> print(dat)
                                    compound  property.measured  unit.label  recorded.measurement
 1  Cl.c1ccc(Cc2nc3ccc(Nc4ncnc5ccccc45)cc3[nH]2)cc1 [GR269666A]    Percent Control           %                    89
 2  COc1cc(C=NNc2ncnc3c2cnn3-c2ccccc2)ccc1O [GW513184X]    Percent Control           %                   100
 3  CCS(=O)(=O)c1ccc(OC)c(Nc2ncc(-c3cccc(OC)c3)o2)c1 [GW580509X]    Percent Control           %                   100
 4  NS(=O)(=O)c1ccc(N/N=C2\C(=O)Nc3ccc(-c4cnco4)cc32)cc1    Percent Control           %                    76
 5  C[C@@H](Oc1cc(-n2cnc3ccc(OC4CCN(C)CC4)cc32)sc1C(N)=O)c1ccccc1Cl [GSK579289A]    Percent Control           %                   100
 6  COc1ccccc1-c1cc(/C=C2\C(=O)Nc3ncc(Br)cc32)cc(Br)c1O [GW442130X]    Percent Control           %                    78
 7  CC1=C(C(=O)Nc2ccc3[nH]ncc3c2)C(c2ccc3ccccc3c2)CC(=O)N1 (stereo not drawn) [GSK270822A]    Percent Control           %                    67
 8  CC1=C(C(=O)Nc2ccc3[nH]ncc3c2)C(c2ccc(Cl)c(Cl)c2)CC(=O)N1 (stereo not drawn) [GSK299115A]    Percent Control           %                    81
 9  Cl.O=C(Nc1ccc(Oc2ccc3[nH]c(NC(=O)c4ccccc4)nc3c2)cc1)Nc1cc(C(F)(F)F)ccc1F [GW709042A]    Percent Control           %                   100
10  Nc1ncnc2occ(-c3ccc(NC(=O)Nc4cc(C(F)(F)F)ccc4F)cc3)c12 [GW770249X]    Percent Control           %                    94
11  CN(C)CCNC(=O)Nc1ccc(N(C)c2ccnc(Nc3ccc(CS(C)(=O)=O)cc3)n2)cc1.Cl [GW830900A]    Percent Control           %                    93
12  COc1cc2ncnc(Nc3ccc4c(cnn4Cc4ccccc4)c3)c2cc1OC.Cl [GW282449A]    Percent Control           %                   100
13  CC(C)COC(=O)c1ccc2c(c1)/C(=C/Nc1ccc(S(N)(=O)=O)cc1)C(=O)N2 [GW416981X]    Percent Control           %                    92
14  Cl.O=C(O[C@H]1CN[C@H](C#Cc2cc3ncnc(Nc4ccc5c(cnn5Cc5ccccc5)c4)c3s2)C1)N1CCOCC1 [GSK200398A]    Percent Control           %                    69
15  C/C(Nc1ccc(S(N)(=O)=O)cc1)=C1/C(=O)Nc2ccccc21 [GW335962X]    Percent Control           %                    79
16  COc1cc2ncn(-c3cc(O[C@H](C)c4ccccc4Cl)c(C(N)=O)s3)c2cc1OC [GSK237701A]    Percent Control           %                    87
17  CN(C)c1cc2c(Nc3ccc4c(cnn4Cc4ccccc4)c3)ncnc2cn1 [GW282974X]    Percent Control           %                    98
18  NS(=O)(=O)c1ccc(Nc2ncc(-c3ccccc3)o2)cc1 [GW572399X]    Percent Control           %                   100
